Species on record: Rattus norvegicus
assay-comment: Open TG-GATES - Regimen: Single
Type: toxicity, organism-based, Sprague-Dawley
Set-up: regimen Single, gender Male, age 6 weeks
condition-summary: in vivo, po, 100 mg/kg, 6 h, tissue Blood, route gavage, dose level Low
Listing: Plat of selected molecules

Some entries whose results are on file:
1) O=C(O)c1cn(C2CC2)c2cc(N3CCNCC3)c(F)cc2c1=O = 102.1 x10_4/uL
2) Clc1ccccc1CN1CCc2sccc2C1 = 130.4 x10_4/uL
3) CCc1cc(C(N)=S)ccn1 [ETHIONAMIDE] = 114.8 x10_4/uL

Data request: Return reported Plat. Input molecule: C[C@H](CS)C(=O)N1CCC[C@H]1C(=O)O
Data returned: 113.6 x10_4/uL

Data request: Return reported Plat. Input molecule: O=C(O)c1cc(/N=N/c2ccc(S(=O)(=O)Nc3ccccn3)cc2)ccc1O
Data returned: 111 x10_4/uL

----------
Listing: DBIL of selected compounds
Organism: Rattus norvegicus
assay-comment: Open TG-GATES - Regimen: Single
Type: toxicity, organism-based, Sprague-Dawley
Parameters: regimen Single, gender Male, age 6 weeks
condition-summary: in vivo, po, 1000 mg/kg, 24 h, tissue Plasma, route gavage, dose level High
The figure you give is taken to be in mg/dL; do not add the unit.

Data request: Return reported DBIL. Input compound: CCc1cc(C(N)=S)ccn1 [ETHIONAMIDE]
Data returned: 0.054

Data request: Return reported DBIL. Input compound: O=C(O)c1cn(C2CC2)c2cc(N3CCNCC3)c(F)cc2c1=O
Data returned: 0.028

Data request: Return reported DBIL. Input compound: Clc1ccccc1CN1CCc2sccc2C1
Data returned: 0.084

Data request: Return reported DBIL. Input compound: O=C(O)c1cc(/N=N/c2ccc(S(=O)(=O)Nc3ccccn3)cc2)ccc1O
Data returned: 0.076

Data request: Return reported DBIL. Input compound: C[C@H](CS)C(=O)N1CCC[C@H]1C(=O)O
Data returned: 0.058

----------
Species on record: Rattus norvegicus
assay-comment: Open TG-GATES - Regimen: Single
Type: toxicity, organism-based, Sprague-Dawley
Design: regimen Single, gender Male, age 6 weeks
condition-summary: in vivo, po, 0 mg/kg, 24 h, tissue Plasma, route gavage, dose level Control
Listing: ALT of selected compounds
The figure you give is taken to be in IU/L; do not add the unit.

Some entries whose results are on file:
1) CN(C)CCC=C1c2ccccc2CCc2ccccc21 [AMITRIPTYLINE] = 48.2
2) CC(=O)Oc1ccccc1C(=O)O [ASPIRIN] = 39

We now examine a further compound.
Data request: Return reported ALT. Input compound: C[C@H](CS)C(=O)N1CCC[C@H]1C(=O)O [CAPTOPRIL]
Data returned: 39

----------
Listing: Eos of selected compounds
Species on record: Rattus norvegicus
assay-comment: Open TG-GATES - Regimen: Daily Repeat
Type: toxicity, organism-based, Sprague-Dawley
Parameters: regimen Daily Repeat, gender Male, age 6 weeks
condition-summary: in vivo, po, 0 mg/kg, 72 h, tissue Blood, route gavage, dose level Control, time 3 day
The figure you give is taken to be in %; do not add the unit.

Data request: Return reported Eos. Input compound: CSc1ccc2c(c1)N(CCC1CCCCN1C)c1ccccc1S2 (stereo not given)
Data returned: 1

Data request: Return reported Eos. Input compound: Cn1c(=O)c2[nH]cnc2n(C)c1=O.O
Data returned: 0.8

Data request: Return reported Eos. Input compound: CN(C)CCC=C1c2ccccc2CCc2ccccc21
Data returned: 1.2

Data request: Return reported Eos. Input compound: Clc1ccccc1CN1CCc2sccc2C1
Data returned: 1

Data request: Return reported Eos. Input compound: COc1ccc2c(c1)c(CC(=O)O)c(C)n2C(=O)c1ccc(Cl)cc1
Data returned: 0.8

----------
Listing: MCV of selected compounds
Organism: Rattus norvegicus
assay-comment: Open TG-GATES - Regimen: Single
Type: toxicity, organism-based, Sprague-Dawley
Set-up: regimen Single, gender Male, age 6 weeks
condition-summary: in vivo, po, 300 mg/kg, 9 h, tissue Blood, route gavage, dose level Middle
The figure you give is taken to be in fL; do not add the unit.

1. O=C(O)c1cn(C2CC2)c2cc(N3CCNCC3)c(F)cc2c1=O [CIPROFLOXACIN] = 67.5
2. CCc1cc(C(N)=S)ccn1 [ETHIONAMIDE] = 63.1

Data request: Return reported MCV. Input compound: C[C@H](CS)C(=O)N1CCC[C@H]1C(=O)O [CAPTOPRIL]
Data returned: 65.4

Data request: Return reported MCV. Input compound: Clc1ccccc1CN1CCc2sccc2C1 [TICLOPIDINE]
Data returned: 60.7

Data request: Return reported MCV. Input compound: O=C(O)c1cc(/N=N/c2ccc(S(=O)(=O)Nc3ccccn3)cc2)ccc1O [SULFASALAZINE]
Data returned: 63.2

----------
Listing: gamma-GTP of selected compounds
Species: Rattus norvegicus
assay-comment: Open TG-GATES - Regimen: Single
Assay type: toxicity, organism-based, Sprague-Dawley
Design: regimen Single, gender Male, age 6 weeks
condition-summary: in vivo, po, 0 mg/kg, 6 h, tissue Plasma, route gavage, dose level Control
The figure you give is taken to be in IU/L; do not add the unit.

Some entries whose results are on file:
1) Cn1c(=O)c2[nH]cnc2n(C)c1=O.O = 1
2) COc1ccc(Cc2nccc3cc(OC)c(OC)cc23)cc1OC = 2
3) CCc1cc(C(N)=S)ccn1 [ETHIONAMIDE] = 1.2
4) CN(C)CCC=C1c2ccccc2CCc2ccccc21 = 1
5) NC(=O)N1c2ccccc2C=Cc2ccccc21 [CARBAMAZEPINE] = 1.4
6) NC(=O)N/N=C/c1ccc([N+](=O)[O-])o1 = 1
7) CC(=O)Oc1ccccc1C(=O)O = 1
8) O=C(O)c1cc(/N=N/c2ccc(S(=O)(=O)Nc3ccccn3)cc2)ccc1O = 1.2

Data request: Return reported gamma-GTP. Input compound: O=C(O)c1cn(C2CC2)c2cc(N3CCNCC3)c(F)cc2c1=O
Data returned: 1.4

Data request: Return reported gamma-GTP. Input compound: C[C@H](CS)C(=O)N1CCC[C@H]1C(=O)O
Data returned: 1.4

Data request: Return reported gamma-GTP. Input compound: Clc1ccccc1CN1CCc2sccc2C1
Data returned: 1

Data request: Return reported gamma-GTP. Input compound: CSc1ccc2c(c1)N(CCC1CCCCN1C)c1ccccc1S2 (configuration not stated)
Data returned: 2

----------
Listing: Ht of selected molecules
Organism: Rattus norvegicus
assay-comment: Open TG-GATES - Regimen: Single
Format: toxicity, organism-based, Sprague-Dawley
Set-up: regimen Single, gender Male, age 6 weeks
condition-summary: in vivo, po, 100 mg/kg, 9 h, tissue Blood, route gavage, dose level Low
The figure you give is taken to be in %; do not add the unit.

Some entries whose results are on file:
1. CCc1cc(C(N)=S)ccn1 [ETHIONAMIDE] = 42.2
2. O=C(O)c1cc(/N=N/c2ccc(S(=O)(=O)Nc3ccccn3)cc2)ccc1O = 38.8

Data request: Return reported Ht. Input molecule: C[C@H](CS)C(=O)N1CCC[C@H]1C(=O)O
Data returned: 38.8

Data request: Return reported Ht. Input molecule: Clc1ccccc1CN1CCc2sccc2C1
Data returned: 37.5

----------
Listing: APTT of selected compounds
Species: Rattus norvegicus
assay-comment: Open TG-GATES - Regimen: Daily Repeat
Type: toxicity, organism-based, Sprague-Dawley
Parameters: regimen Daily Repeat, gender Male, age 6 weeks
condition-summary: in vivo, po, 0 mg/kg, 72 h, tissue Blood, route gavage, dose level Control, time 3 day
The figure you give is taken to be in s; do not add the unit.

Some entries whose results are on file:
1. Clc1ccccc1CN1CCc2sccc2C1 [TICLOPIDINE] = 20.4
2. Cn1c(=O)c2[nH]cnc2n(C)c1=O.O [THEOPHYLLINE] = 23.1

Data request: Return reported APTT. Input compound: NC(=O)N/N=C/c1ccc([N+](=O)[O-])o1 [NITROFURAZONE]
Data returned: 14.6

----------
Species on record: Rattus norvegicus
assay-comment: Open TG-GATES - Regimen: Single
Type: toxicity, organism-based, Sprague-Dawley
Design: regimen Single, gender Male, age 6 weeks
condition-summary: in vivo, po, 0 mg/kg, 24 h, tissue Blood, route gavage, dose level Control
property-name: WBC (x10_2/uL)
The figure you give is taken to be in x10_2/uL; do not add the unit.

Some entries whose results are on file:
1. Cn1c(=O)c2[nH]cnc2n(C)c1=O.O [THEOPHYLLINE] = 97
2. O=C(O)c1cn(C2CC2)c2cc(N3CCNCC3)c(F)cc2c1=O [CIPROFLOXACIN] = 132.8
3. C[C@H](CS)C(=O)N1CCC[C@H]1C(=O)O [CAPTOPRIL] = 114
4. O=C(O)c1cc(/N=N/c2ccc(S(=O)(=O)Nc3ccccn3)cc2)ccc1O [SULFASALAZINE] = 89.1

We now examine a further compound.
Data request: Return reported WBC. Input compound: NC(=O)N1c2ccccc2C=Cc2ccccc21 [CARBAMAZEPINE]
Data returned: 90.1
